Provide the reported IC50 of each item.
Test system: HeLa
test method notes: Cytotoxicity against human HeLa cells after 3 days by MTT assay
Assay type: functional, cell-based
protocol conditions: 72 h
One number for each entry, in µM.

Worked set:
>>> print(df.to_string())
                              record_smiles  endpoint_name  unit_info   val
0  C/C=C/C(=O)OC[C@H]1C2=C(C[C@H]3[C@H]4C5=C(C[C@@H](C(=O)N13)N4C)C(=O)C(C)=C(OC)C5=O)C(=O)C(C)=C(OC)C2=O           IC50         µM  12.7
1  COC1=C(C)C(=O)C2=C(C1=O)[C@@H]1[C@@H]3CC4=C(C(=O)C(OC)=C(C)C4=O)[C@H](COC(=O)/C=C/c4ccc(OC)cc4)N3C(=O)[C@H](C2)N1C           IC50         µM  2.81
2  COC1=C(C)C(=O)C2=C(C1=O)[C@@H]1[C@@H]3CC4=C(C(=O)C(OC)=C(C)C4=O)[C@H](COC(=O)c4cccnc4)N3C(=O)[C@H](C2)N1C           IC50         µM  3.39
3  COC1=C(C)C(=O)C2=C(C1=O)[C@@H]1[C@@H]3CC4=C(C(=O)C(OC)=C(C)C4=O)[C@H](COC(=O)c4ccccc4)N3C(=O)[C@H](C2)N1C           IC50         µM   3.1

Now let's try a different one.
Ask: What value of measured IC50 is listed for COC1=C(C)C(=O)C2=C(C1=O)[C@@H]1[C@@H]3CC4=C(C(=O)C(OC)=C(C)C4=O)[C@H](COC(=O)/C=C/c4ccc(F)cc4)N3C(=O)[C@H](C2)N1C ?
Result: 9.99
